measured.on: T1, corticotropin releasing factor 2 receptor
T1 sequence (Q13324 whole entry, species assumed, looked up): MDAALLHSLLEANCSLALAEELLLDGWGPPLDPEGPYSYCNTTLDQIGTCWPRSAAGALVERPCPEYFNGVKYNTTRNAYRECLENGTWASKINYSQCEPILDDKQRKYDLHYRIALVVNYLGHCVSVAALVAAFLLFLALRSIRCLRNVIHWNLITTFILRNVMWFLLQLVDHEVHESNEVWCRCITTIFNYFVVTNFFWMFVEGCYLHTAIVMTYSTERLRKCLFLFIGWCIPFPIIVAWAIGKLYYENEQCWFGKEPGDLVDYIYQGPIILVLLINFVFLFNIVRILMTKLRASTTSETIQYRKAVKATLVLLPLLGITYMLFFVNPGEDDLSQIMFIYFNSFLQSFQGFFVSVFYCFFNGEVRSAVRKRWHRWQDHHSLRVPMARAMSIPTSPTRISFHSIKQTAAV
assay.protocol: cell-based or functional assay
Ends that are not written are not given here.
quantity: CRF2R Emax %
Answers without a unit are incomplete; give the number and then its unit.

1) IVLSLDVPIGLLQILLEQARHAAAHAAAHAQAHILAHV-NH2 [SEQ ID NO 367] : 18%
2) ZGPPISIDLPQYLLRKMIEIEKQEKEKQQAANNALLLDTI (C-terminal amide) [SEQ ID NO 224] : 100%
3) ZGPPISIDLPTYLLRILIEIEKQEKEKQQAANNRLLLDTI (C-terminal amide) [SEQ ID NO 252] : 100%

Here is the next item to consider.
Name the recorded CRF2R Emax % for ZGPPISIDLPFFLLRKVIEIEKQEKEKQQAANNALLLDTI (C-terminal amide) [SEQ ID NO 316] . 94.5%

These measurements were taken from patent US20030148956A1.
